system: WT E. coli; assay: Minimal inhibitory concentration in wild-type E. coli; format: cell-based, Escherichia coli; details: wild-type E. coli, 37° C., 16 hours; read-out: MIC (μM) in WT E. coli
Measured attribute: MIC

Measured MIC, CO[C@@H]1[C@@H](OC(N)=O)[C@@H](O)[C@H](Oc2ccc3c(O)c(NC(=O)c4cccc(C5CCCCC5)c4)c(=O)oc3c2C)OC1(C)C [Compound 62] : 59 µM

Measured MIC, CO[C@@H]1[C@@H](OC(N)=O)[C@@H](O)[C@H](Oc2ccc3c(O)c(NC(=O)c4cccc(-c5ccccc5[N+](=O)[O-])c4)c(=O)oc3c2C)OC1(C)C [Compound 64] : >300 µM

Measured MIC, CO[C@@H]1[C@@H](OC(N)=O)[C@@H](O)[C@H](Oc2ccc3c(O)c(NC(=O)c4cc(-c5ccc(F)cc5)cc(O)c4O)c(=O)oc3c2C)OC1(C)C [Compound 97] : >300 µM

Measured MIC, CO[C@@H]1[C@@H](OC(N)=O)[C@@H](O)[C@H](Oc2ccc3c(O)c(NC(=O)Cc4ccccc4)c(=O)oc3c2C)OC1(C)C [Compound 42] : >300 µM

Measured MIC, CO[C@@H]1[C@@H](OC(N)=O)[C@@H](O)[C@H](Oc2ccc3c(O)c(NC(=O)c4cccc(-c5cccc(O)c5O)c4)c(=O)oc3c2C)OC1(C)C [Compound 99] : >300 µM

Measured MIC, CO[C@@H]1[C@@H](OC(N)=O)[C@@H](O)[C@H](Oc2ccc3c(O)c(NC(=O)c4ccc(O)c(CC(N)=O)c4)c(=O)oc3c2C)OC1(C)C [Compound 90] : >300 µM
